Source listed as PubChem BioAssay (NCI).

test system: OVCAR-8 ovarian; test: NCI tumour cell line growth inhibition, 48 h; in the data active means GI50 below about 0.43 µM; inactive means the rest
Write down one outcome, taken from 1 (active), 0 (inactive)

In this assay, the call recorded for CCO/C=N/C1=C(C#N)C(c2ccc(OC)cc2)c2sc3c(F)cccc3c2O1 (centres undefined) was what?
0

In this assay, the call recorded for CCOC(=O)N1C/C(=C/c2ccc(Cl)cc2)C(=O)/C(=C/c2ccc(Cl)cc2)C1 was what?
0

In this assay, the call recorded for COc1ccc(/C=C/C(=O)c2cc3c(N)c(C(=O)Nc4cccc(Cl)c4C)sc3nc2C)cc1 was what?
1

In this assay, the call recorded for N#Cc1c(-c2ccccc2)cc(-c2ccccc2)n(CCCC(=O)NO)c1=O was what?
0
